assay: recombinant UMI read abundance after kanamycin selection (control-corrected) (log10(CPM+1)); higher = more efficient recombination; extreme values may be limits of the assay; sequences stand for … in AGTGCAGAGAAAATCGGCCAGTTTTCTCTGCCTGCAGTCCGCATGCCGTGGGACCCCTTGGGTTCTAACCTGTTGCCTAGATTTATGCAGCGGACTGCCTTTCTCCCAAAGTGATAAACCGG…AGGTTGGTTTCACT; site = the 11-nt donor;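 note: IS621 bridge recombinase in Escherichia coli cells against a fixed T5 target plasmid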
// Not fulfilled strictly below 0.009 in recombinant UMI read abundance (log10); Fulfilled otherwise

> print(dat)
                                   sequence    label.value
1  CCGTTAACATGGACCGGTTTTCCCGGTAATCCGTATTTGTG (site CCGTTATCTCA)      Fulfilled
2  CCATAGCCATGGACCGGTTTTCCCGGTAATCCGTATTTGCC (site CCGTAGCCTGG)  Not fulfilled
3  CACGGTCCATGGACCGGTTTTCCCGGTAATCCGTATTTGCA (site CGCGGTCCTTG)  Not fulfilled
4  TCTAATACATGGACCGGTTTTCCCGGTAATCCGTATTTGGT (site TCTAATACTAC)      Fulfilled
5  ATCTAAACATGGACCGGTTTTCCCGGTAATCCGTATTTGAC (site ATCTAAACTGT)      Fulfilled

**Query** Could you please find out whether TCCGCATCATGGACCGGTTTTCCCGGTAATCCGTATTTGGG (site TCCGCATCTCC) has recombinant UMI read abundance (log10) that meets 0.009 or exceeds it?
**Result** Not fulfilled

**Query** // repeat for CCCATATCATGGACCGGTTTTCCCGGTAATCCGTATTTGTA (site CCCATATCTTA) and report
**Result** Fulfilled

**Query** // repeat for GATCATACATGGACCGGTTTTCCCGGTAATCCGTATTTGCT (site GATCATACTAG) and report
**Result** Fulfilled

**Query** // repeat for CGGACATCATGGACCGGTTTTCCCGGTAATCCGTATTTGTT (site CGGACATCTAC) and report
**Result** Not fulfilled

**Query** // repeat for TAAGCAGCATGGACCGGTTTTCCCGGTAATCCGTATTTGCT (site CAAGCAGCTAG) and report
**Result** Fulfilled

**Query** // repeat for AATTGGACATGGACCGGTTTTCCCGGTAATCCGTATTTGAC (site TATTGGACTGT) and report
**Result** Fulfilled

**Query** // repeat for TACTCGACATGGACCGGTTTTCCCGGTAATCCGTATTTGCT (site TACTAGACTAG) and report
**Result** Fulfilled

**Query** // repeat for GGTACGACATGGACCGGTTTTCCCGGTAATCCGTATTTGTT (site GGTACGGCTAA) and report
**Result** Fulfilled

From: the supplement of paper PMC11208160
